Values were extracted from patent US10858316B2.

- system-under-test: UniProt:Q07820
- assay-protocol: Fluorescence polarization competition assay (FPCA), Mcl-1 / FITC-Bak BH3 peptide
- Assay type: binding
- experimental-context: fluorescence polarization competition assay; read-out: Ki (μM) Mcl-1
# reported Ki; entries follow

# smiles-repr, Ki / µM
rows = [
    ("CC(C)CN(c1ccc(C(=O)O)c(O)c1)S(=O)(=O)c1ccc2ccccc2c1", 60.3),
    ("Cc1cc(Oc2ccc(S(=O)(=O)N(CC(C)C)c3ccc(C(=O)O)cc3)cc2)cc(C)c1Cl", 0.261),
    ("CC(C)CN(c1ccc(C(=O)O)c(O)c1)S(=O)(=O)c1ccc(-c2ccccc2)cc1", 7.87),
    ("Cc1cc(Oc2ccc(S(=O)(=O)N(CC(C)C)c3ccc(C(=O)O)c(O)c3)cc2)cc(C)c1Cl", 0.02),
]

###

# reported IC50; entries follow
- Tested on: HL-60 cell line
- assay-protocol: Cell viability of HL-60 cell line after treating with inhibitors for 24 hrs
- Assay type: cell-based, human
- experimental-context: read-out: HL-60 IC50 10% FBS, 10% FBS

# molecule, unit-name, measurement-qualifier, IC50
data = [
    ("Cc1cc(CCCN(Cc2ccccc2)c2ccc(C(=O)O)c(O)c2)cc(C)c1Cl", "µM", "=", 88),
    ("CC(C)CN(c1ccc(C(=O)O)c(O)c1)S(=O)(=O)c1ccc(Oc2ccccc2)cc1 [LC-4-099 13ag]", "µM", ">", 120),
    ("Cc1cc(Oc2ccc(S(=O)(=O)N(Cc3ccccc3)c3ccc(C(=O)NS(=O)(=O)c4ccc(NCC5CCOCC5)c([N+](=O)[O-])c4)c(O)c3)cc2)cc(C)c1Cl", "µM", ">", 120),
    ("COC(=O)c1ccc(N(CC(C)C)S(=O)(=O)c2ccc(Oc3ccccc3)cc2)cc1O", "µM", "=", 76.4),
    ("Cc1cc(Oc2ccc(S(=O)(=O)N(CC(C)C)c3ccc(O)c(C(=O)O)c3)cc2)cc(C)c1Cl [JY-5-304 18bd]", "µM", ">", 120),
    ("Cc1cc(Oc2ccc(S(=O)(=O)N(Cc3ccccc3)c3ccc(C(=O)O)c(O)c3)cc2)cc(C)c1Cl [LC-4-118 13cc]", "µM", "=", 53.2),
    ("CC(=O)OCOC(=O)c1ccc(N(CC(C)C)S(=O)(=O)c2ccc(Oc3ccccc3)cc2)cc1O", "µM", ">", 120),
]

###

- system-under-test: Mcl-1 (Homo sapiens (Human), UniProt Q07820)
- Sequence (Q07820 172-327): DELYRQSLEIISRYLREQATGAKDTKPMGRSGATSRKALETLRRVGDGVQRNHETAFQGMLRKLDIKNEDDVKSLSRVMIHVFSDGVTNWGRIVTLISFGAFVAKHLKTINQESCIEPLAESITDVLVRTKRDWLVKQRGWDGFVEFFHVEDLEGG
- assay-protocol: Fluorescence polarization competition assay (FPCA), Mcl-1 / FITC-Bak BH3 peptide
- Type: binding
- experimental-context: ΔG=−RTlnKi from experimental Ki

# smiles-repr, system-under-test, Mcl-1 Exp ΔG
rows = [
    ("O=C(O)c1cc(S(=O)(=O)Nc2ccc(Oc3cccc(Br)c3)cc2)c2ccccc2c1O", "Mcl-1 (Homo sapiens (Human), UniProt Q07820)", "-9.47 kcal/mol"),
    ("Cc1cc(Oc2ccc(N(CC(C)C)S(=O)(=O)c3cc(C(=O)O)c(O)c4ccccc34)cc2)cc(C)c1Cl", "Mcl-1 (Homo sapiens (Human), UniProt Q07820)", "-9.68 kcal/mol"),
    ("O=C(O)c1cc(S(=O)(=O)Nc2ccc(Br)cc2Br)c2ccccc2c1O", "Mcl-1 (Homo sapiens (Human), UniProt Q07820)", "-8.69 kcal/mol"),
]
